# Test system: MCF7 breast
# assay-procedure: NCI-60 one-dose screen, 48 h (100 = growth as untreated, 0 = no growth, -100 = all killed)
# measurement-parameters: 10 µM unless noted
About 83,000 compounds went through this panel and 20% of them were active in at least one assay; those are over-represented in the sample as a whole. Calls of active or inactive are those of the source. The calls were made as follows: active = growth percent below 10; inactive = the rest.
# growth listing for each entry below

Solved cases below.
INSERT INTO assay_data (molecule, endpoint_name, reading) VALUES
  ('Cn1c2c(Cl)c(Cl)ccc2c2ccn3c(=O)c4ccccc4nc3c21', 'growth', '96.2% (inactive)'),
  ('Cc1ccc(SCN2CCN(c3cccc(Cl)c3)CC2)cc1', 'growth', '85.2% (inactive)'),
  ('COc1ncc(-c2ccc3ncnc(Nc4cccc(Cl)c4)c3c2)cc1NS(C)(=O)=O', 'growth', '7.7% (active)'),
  ('CN1CCN(Cc2ccc(NC(=O)c3[nH]ncc3Nc3ncnc4sccc34)cc2)CC1', 'growth', '9.47% (active)'),
  ('CN(C)C(=O)c1cc2cnc(Nc3ccc(-c4csc5c(=O)cc(N6CCNCC6)oc45)cc3)nc2n1C1CCCC1', 'growth', '3.93% (active)'),
  ('CC[C@H](Nc1cc(C)nc(N)n1)c1nc2cccc(NCc3ccc(C(=O)NO)cc3)c2c(=O)n1-c1ccccc1', 'growth', '24.7% (inactive)');

# growth (molecule: CCN(CC)c1ccc(/C=C/C2=[N+](C)c3ccccc3C2(C)C)cc1 ) is 4.72% (active)

Just so you know, measured growth for O=C(O)C(O)C(O)C(=O)O.[NH-]C1CCCCC1[NH-].[Pt+2] (stereo not given) came out at 91.9% (inactive)

Data point: N#Cc1c(N)nc(N)nc1Nc1ccc(Br)cc1 ; growth = 61.6% (inactive)

Noted for O=[N+]([O-])c1cccc(-c2nc3sccn3c2-c2ccnc(NCCCNS(=O)(=O)c3ccc(F)cc3)n2)c1 : its growth reads -8.37% (active)

Briefly, growth measured for O=[N+]([O-])c1cccc(-c2nc3sccn3c2-c2ccnc(NCCCNS(=O)(=O)c3ccc(Br)cc3)n2)c1 : 34% (inactive)

growth in this record for CCOC(=O)CC(=O)c1c(C)cc(C)cc1C : 97.5% (inactive)

====

# Test system: HCT-116 colon
# assay-procedure: NCI-60 one-dose screen, 48 h
# measurement-parameters: 10 µM unless noted
The panel holds about 83,000 compounds, 20% with a hit somewhere; the sample as a whole holds those more often. Calls of active or inactive are those of the source. The calls were made as follows: active = growth percent below 10; inactive = the rest.
Your response should consist of one outcome taken from 1.0 (active), 0.0 (inactive)

INSERT INTO assay_data (compound, study_system, label_class) VALUES
  ('CCCCCCCCCCCCNC(=O)[C@H]1CSC(c2ccc(OC)c(F)c2)N1 (stereo not given in full)', 'HCT-116 colon', 1.0),
  ('C=C(CN1CCN(c2cccc(C(F)(F)F)n2)CC1)c1ccc(C(=O)Nc2ccccc2N)cc1', 'HCT-116 colon', 0.0),
  ('O=C1CC(c2nc3ccccc3[nH]2)CN1C1CCCCC1 (stereo not given)', 'HCT-116 colon', 0.0),
  ('CCN(CC)CC(O)c1cc(-c2ccc(Cl)cc2)nc2c(C)c(Cl)ccc12 (stereo not given)', 'HCT-116 colon', 1.0);

Let us examine a further case.
Could you kindly confirm the outcome this assay logged for CCCCN(CCCC)CCC(C)(O)c1cc2ccccc2c2ccccc12 (stereo not given) ?
0.0
